system: cAMP phosphodiesterase 3 (Cavia porcellus); assay: Inhibition of Cavia porcellus (guinea pig) PDE3 isolated from heart using [3H]cAMP as substrate at 10 uM by two-step method
Kindly supply the reported inhibition values for the records listed here.
Answers are plain numbers, in %.

O=C(c1ccccc1)c1cc(S(=O)(=O)c2ccccc2)c(=O)[nH]c1-c1ccccc1	0
O=C(c1ccccc1)c1cc(C(=O)c2ccccc2)c(=O)[nH]c1-c1ccccc1	1.76
CC(=O)c1cc(C(=O)C(C)(C)C)c(=O)[nH]c1C	1.15

Dear reader, for each entry below, please note its inhibition.
1. O=C1CC(c2ccccc2)Cc2[nH]c(=O)c(C(=O)c3ccccc3)cc21 (stereo not given)
2. O=C1CC(c2ccccc2)Cc2[nH]c(=O)c(S(=O)(=O)c3ccccc3)cc21 (stereo not given)

Completion:
5.2
0

* * *

Kindly supply the reported inhibition values for the records listed here.
Target: UniProt P0DMS8
Sequence (whole entry): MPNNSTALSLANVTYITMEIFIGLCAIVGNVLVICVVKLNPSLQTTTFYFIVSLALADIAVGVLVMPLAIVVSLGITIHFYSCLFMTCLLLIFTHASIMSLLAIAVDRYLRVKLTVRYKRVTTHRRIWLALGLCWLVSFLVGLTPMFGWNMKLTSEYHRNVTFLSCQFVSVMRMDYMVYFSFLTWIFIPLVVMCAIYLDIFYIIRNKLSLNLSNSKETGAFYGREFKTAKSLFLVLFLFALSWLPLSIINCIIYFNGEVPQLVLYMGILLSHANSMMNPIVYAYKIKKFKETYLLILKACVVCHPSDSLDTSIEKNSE
Experiment: Displacement of [125I]AB-MECA from Homo sapiens (human) adenosine A3 receptor expressed in CHO cells at 10 uM
Format: cell-based
Give bare numbers, in %.

CC(=O)c1cc(S(=O)(=O)c2ccccc2)c(=O)[nH]c1C	0
O=C(c1ccccc1)c1cc(C(=O)c2ccccc2)c(=O)[nH]c1-c1ccccc1	2
CC(C)(C)C(=O)c1cc2c([nH]c1=O)CC(c1ccccc1)CC2=O (stereo unspecified)	21
O=C1CC(c2ccccc2)Cc2[nH]c(=O)c(S(=O)(=O)c3ccccc3)cc21 (stereo unspecified)	18
CC(=O)c1cc(C(=O)C(C)(C)C)c(=O)[nH]c1C	13
CC(=O)c1cc(C(=O)c2ccccc2)c(=O)[nH]c1C	0
CC(C)(C)C(=O)c1cc2c([nH]c1=O)CCCC2=O	0
O=C1CCCc2[nH]c(=O)c(S(=O)(=O)c3ccccc3)cc21	0
O=C(c1ccccc1)c1cc(S(=O)(=O)c2ccccc2)c(=O)[nH]c1-c1ccccc1	0
O=C1CC(c2ccccc2)Cc2[nH]c(=O)c(C(=O)c3ccccc3)cc21 (stereo unspecified)	0

Please examine the following record next.
Prompt: Need inhibition of O=C1CCCc2[nH]c(=O)c(C(=O)c3ccccc3)cc21 , thanks.
Completion: 0

* * *

target: Adenosine receptor A1 (Homo sapiens) (UniProt P30542); assay: Displacement of [3H]DPCPX from Homo sapiens (human) adenosine A1 receptor expressed in CHO cells at 10 uM; type: cell-based
Sequence (P30542 whole entry): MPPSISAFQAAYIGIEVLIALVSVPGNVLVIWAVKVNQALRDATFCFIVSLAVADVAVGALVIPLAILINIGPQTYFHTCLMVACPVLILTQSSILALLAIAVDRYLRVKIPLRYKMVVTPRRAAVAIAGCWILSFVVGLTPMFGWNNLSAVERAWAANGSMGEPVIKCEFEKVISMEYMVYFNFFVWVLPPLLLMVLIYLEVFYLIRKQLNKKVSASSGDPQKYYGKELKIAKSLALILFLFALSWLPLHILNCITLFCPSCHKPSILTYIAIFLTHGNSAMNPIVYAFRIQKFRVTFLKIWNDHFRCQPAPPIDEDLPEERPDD
readout kind: inhibition (%)
One number for each entry, in %.

// solved cases for inhibition follow
CC(C)(C)C(=O)c1cc2c([nH]c1=O)CC(c1ccccc1)CC2=O (stereo unspecified)	11
O=C(c1ccccc1)c1cc(S(=O)(=O)c2ccccc2)c(=O)[nH]c1-c1ccccc1	1
CC(C)(C)C(=O)c1cc2c([nH]c1=O)CCCC2=O	0

Dear reader, for each entry below, please note its inhibition.
1. O=C1CCCc2[nH]c(=O)c(S(=O)(=O)c3ccccc3)cc21
2. O=C(c1ccccc1)c1cc(C(=O)c2ccccc2)c(=O)[nH]c1-c1ccccc1
3. O=C1CC(c2ccccc2)Cc2[nH]c(=O)c(C(=O)c3ccccc3)cc21 (stereo unspecified)

Completion:
1. 36
2. 2
3. 5

* * *

system: cAMP phosphodiesterase 3 (Cavia porcellus); assay: Inhibition of Cavia porcellus (guinea pig) PDE3 isolated from heart using [3H]cAMP as substrate at 50 uM by two-step method
Parameter class (string): assigned from measured inhibition. Ranges: lo = under 4%, med = from 4% up to 5%, hi = 5% and over

Worked examples, 8 molecules total:
O=C1CC(c2ccccc2)Cc2[nH]c(=O)c(S(=O)(=O)c3ccccc3)cc21 (stereo unspecified)	hi
CC(C)(C)C(=O)c1cc2c([nH]c1=O)CCCC2=O	hi
O=C(c1ccccc1)c1cc(C(=O)c2ccccc2)c(=O)[nH]c1-c1ccccc1	hi
O=C1CCCc2[nH]c(=O)c(S(=O)(=O)c3ccccc3)cc21	med
O=C1CCCc2[nH]c(=O)c(C(=O)c3ccccc3)cc21	med
O=C1CC(c2ccccc2)Cc2[nH]c(=O)c(C(=O)c3ccccc3)cc21 (stereo unspecified)	lo
CC(=O)c1cc(C(=O)c2ccccc2)c(=O)[nH]c1C	med
O=C(c1ccccc1)c1cc(S(=O)(=O)c2ccccc2)c(=O)[nH]c1-c1ccccc1	lo

Prompt: State the class of the molecule shown: CC(=O)c1cc(C(=O)C(C)(C)C)c(=O)[nH]c1C
Completion: lo

Prompt: What do we get for CC(C)(C)C(=O)c1cc2c([nH]c1=O)CC(c1ccccc1)CC2=O (stereo unspecified) ?
Completion: lo

* * *

molecular target: Uncharacterized protein (Bos taurus) (UniProt E1BKU0); test: Displacement of [3H]CGS21680 from adenosine A2A receptor in Bos taurus (bovine) cortical membrane at 10 uM
Sequence (E1BKU0 as listed by the source): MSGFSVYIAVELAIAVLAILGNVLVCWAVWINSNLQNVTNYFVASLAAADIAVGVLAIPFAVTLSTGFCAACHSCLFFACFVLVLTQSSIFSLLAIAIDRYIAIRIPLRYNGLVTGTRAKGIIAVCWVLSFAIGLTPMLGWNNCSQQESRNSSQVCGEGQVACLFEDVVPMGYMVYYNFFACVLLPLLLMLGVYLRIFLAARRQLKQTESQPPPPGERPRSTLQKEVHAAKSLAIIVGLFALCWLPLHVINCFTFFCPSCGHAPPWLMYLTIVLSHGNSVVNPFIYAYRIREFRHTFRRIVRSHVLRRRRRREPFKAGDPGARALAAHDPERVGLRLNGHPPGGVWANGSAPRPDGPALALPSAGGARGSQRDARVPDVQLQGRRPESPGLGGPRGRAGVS
readout kind: inhibition

// solved cases for inhibition follow
O=C1CCCc2[nH]c(=O)c(C(=O)c3ccccc3)cc21	4%
CC(=O)c1cc(C(=O)c2ccccc2)c(=O)[nH]c1C	0%
O=C1CCCc2[nH]c(=O)c(S(=O)(=O)c3ccccc3)cc21	2%

Dear reader, for each entry below, please note its inhibition.
1. CC(C)(C)C(=O)c1cc2c([nH]c1=O)CCCC2=O
2. CC(=O)c1cc(S(=O)(=O)c2ccccc2)c(=O)[nH]c1C
3. O=C(c1ccccc1)c1cc(C(=O)c2ccccc2)c(=O)[nH]c1-c1ccccc1
4. O=C(c1ccccc1)c1cc(S(=O)(=O)c2ccccc2)c(=O)[nH]c1-c1ccccc1
5. CC(=O)c1cc(C(=O)C(C)(C)C)c(=O)[nH]c1C
6. O=C1CC(c2ccccc2)Cc2[nH]c(=O)c(C(=O)c3ccccc3)cc21 (centres undefined)

Completion:
1: 0%; 2: 0%; 3: 8%; 4: 8%; 5: 11%; 6: 0%

* * *

The next entries give measured Ki for Uncharacterized protein (Bos taurus, UniProt E1BKU0).
Answers are plain numbers, in µM.

CC(C)(C)C(=O)c1cc2c([nH]c1=O)CC(c1ccccc1)CC2=O (configuration not stated)	15

Please examine the following record next.
Prompt: Which measured Ki belongs to O=C1CC(c2ccccc2)Cc2[nH]c(=O)c(S(=O)(=O)c3ccccc3)cc21 (configuration not stated) , tested on Uncharacterized protein (Bos taurus, UniProt E1BKU0)?
Completion: 7.9

* * *

Kindly supply the reported inhibition values for the records listed here.
Biological target: Adenosine receptor A1 (Bos taurus) (UniProt P28190)
Sequence (whole entry): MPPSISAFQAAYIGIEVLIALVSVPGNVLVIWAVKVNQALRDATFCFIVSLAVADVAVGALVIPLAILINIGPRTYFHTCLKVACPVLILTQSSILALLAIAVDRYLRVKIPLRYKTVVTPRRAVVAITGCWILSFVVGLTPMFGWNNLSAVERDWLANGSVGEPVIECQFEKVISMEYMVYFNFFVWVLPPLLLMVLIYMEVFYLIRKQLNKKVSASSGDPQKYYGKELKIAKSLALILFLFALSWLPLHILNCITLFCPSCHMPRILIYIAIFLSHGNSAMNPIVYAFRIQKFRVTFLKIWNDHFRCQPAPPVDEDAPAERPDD
Assay: Displacement of [3H]DPCPX from adenosine A1 receptor in Bos taurus (bovine) cortical membrane at 10 uM
Give bare numbers, in %.

// solved cases for inhibition follow
CC(=O)c1cc(C(=O)c2ccccc2)c(=O)[nH]c1C	0
O=C1CCCc2[nH]c(=O)c(S(=O)(=O)c3ccccc3)cc21	10
CC(=O)c1cc(C(=O)C(C)(C)C)c(=O)[nH]c1C	0
O=C(c1ccccc1)c1cc(S(=O)(=O)c2ccccc2)c(=O)[nH]c1-c1ccccc1	8
CC(=O)c1cc(S(=O)(=O)c2ccccc2)c(=O)[nH]c1C	0
CC(C)(C)C(=O)c1cc2c([nH]c1=O)CCCC2=O	13
O=C1CCCc2[nH]c(=O)c(C(=O)c3ccccc3)cc21	6

Please examine the following record next.
Prompt: Need inhibition of O=C(c1ccccc1)c1cc(C(=O)c2ccccc2)c(=O)[nH]c1-c1ccccc1 , thanks.
Completion: 13
